Each recorded value in this set is attributed to patent US20190177440A1.

test system: Lewis lung carcinoma: 3LL; assay: Tumor volume in mice bearing Lewis lung carcinoma 3LL (Example 9); type: in vivo, mouse; conditions: Example 9-1: ip 0.5 mg/10 mL/kg once, without CY; days 3, 6, 9; FIG. 9
MEASURED_PARAMETER: tumor volume versus saline group

INSERT INTO measurements (molecule, test_system, measured_parameter, test_value) VALUES
  ('CCCCCC/C=C/CCCCCC(=O)OC(CCCCCCCCCCC)CC(=O)NC1C(OCC2OC(OP(=O)(O)O)C(NC(=O)CC(=O)CCCCCCCCCCC)C(OC(=O)CC(O)CCCCCCC)C2O)OC(COC2(C(=O)O)CC(OC3(C(=O)O)CC(OC4OC(C(=O)O)C(OC5OC(CO)C(O)C(O)C5O)C(O)C4O)C(O)C(C(O)CO)O3)C(OC3OC(COP(=O)(O)O)C(OC4OC(CO)C(O)C(O)C4O)C(O)C3O)C(C(O)CO)O2)C(OP(=O)(O)O)C1OC(=O)CC(O)CCCCCCC (stereo not drawn)', 'Lewis lung carcinoma: 3LL', 'tumor volume versus saline group', 'equivalent results'),
  ('CCCCCC/C=C/CCCCCC(=O)OC(CCCCCCCCCCC)CC(=O)NC1C(OCC2OC(OP(=O)(O)O)C(NC(=O)CC(=O)CCCCCCCCCCC)C(OC(=O)CC(O)CCCCCCC)C2O)OC(COC2(C(=O)O)CC(OC3(C(=O)O)CC(O)C(OC4OC(C(=O)O)C(OC5OC(CO)C(O)C(O)C5O)C(O)C4O)C(C(O)CO)O3)C(OC3OC(CO)C(O)C(O)C3O)C(C(O)CO)O2)C(OP(=O)(O)O)C1OC(=O)CC(O)CCCCCCC (stereo not drawn)', 'Lewis lung carcinoma: 3LL', 'tumor volume versus saline group', 'equivalent results'),
  ('CCCCCC/C=C/CCCCCC(=O)OC(CCCCCCCCCCC)CC(=O)NC1C(OCC2OC(OP(=O)(O)O)C(NC(=O)CC(=O)CCCCCCCCCCC)C(OC(=O)CC(O)CCCCCCC)C2O)OC(COC2(C(=O)O)CC(OC3(C(=O)O)CC(OC4OC(C(=O)O)C(OC5OC(CO)C(O)C(O)C5O)C(O)C4O)C(O)C(C(O)CO)O3)C(OC3OC(CO)C(O)C(O)C3O)C(C(O)CO)O2)C(OP(=O)(O)O)C1OC(=O)CC(O)CCCCCCC (stereo not drawn)', 'Lewis lung carcinoma: 3LL', 'tumor volume versus saline group', 'equivalent results');
